The entries below are paired with their reported z-score.
experiment: E. coli DRC41 culture turbidity changes, primary screen, E. coli filamentation inducer project, strain DRC41, OD650, 48 h (AID 1152);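 note: E. coli MC1000 strain DRC41 lacking acrAB efflux pump and sulA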; settings: E. coli DRC41 (acrAB sulA), higher = more signal, called active from +8 up or from −8 down
Active and inactive are the calls of the source.

molecule=CCc1oc(CC[C@@H](CO)NC(=O)NCCn2cc(C3(O)CCCCC3)nn2)c(C(=O)OC)c1C(=O)OC endpoint_label=z-score result="-1.26 (inactive)"

Request the reported z-score associated with O=C(NCc1ccc(F)cc1)[C@H]1C[C@H]2C(=O)N[C@@H](Cc3ccccc3)C(=O)N2[C@H]1c1ccc(O)cc1
0.132 (inactive)

Request the reported z-score associated with [N-]=[N+]=Nc1ccccc1[C@H]1OC(c2ccc(OCCCO)cc2)=N[C@@]1(Cc1ccccc1)C(=O)O
0.409 (inactive)

Request the reported z-score associated with NC(=O)[C@@H]1[C@H]2C(=O)O[C@H](c3ccccc3)[C@H](c3ccccc3)N2[C@H](c2ccc(O)cc2)[C@@]12C(=O)Nc1ccc(C#CC3(O)CCCCCC3)cc12
-0.723 (inactive)

Request the reported z-score associated with CC1CC/C=C\[C@H]2OC34C=CCN(Cn5nnc6ccccc65)C(=O)[C@H]3N(C(CO)C(C)C)C(=O)[C@@H]4C2C(=O)O1 (some centres not stated)
0.532 (inactive)

Request the reported z-score associated with COCCCN1C(=O)[C@@]2(Cc3ccccc31)c1ccccc1C(=O)N(Cc1ccccc1C(F)(F)F)[C@H]2c1ccc(CO)cc1
-0.125 (inactive)

Request the reported z-score associated with O=C1O[C@H](c2ccccc2)[C@H](c2ccccc2)N2[C@H]1[C@@H](C(=O)NC[C@H](O)c1ccccc1)[C@]1(C(=O)Nc3ccccc31)[C@H]2c1ccc(OCCO)cc1
-1.26 (inactive)

Request the reported z-score associated with COc1ccc(CCNC(=O)[C@@H]2c3ccccc3C(=O)N(C3Cc4ccccc4C3)[C@H]2c2ccc(CO)cc2)cc1
-0.483 (inactive)

Request the reported z-score associated with C[C@@]1([C@@H](NC(=O)c2ccccc2)c2ccc(-c3ccccc3)cc2)C[C@H]1C1CCCCC1
-2.22 (inactive)

Request the reported z-score associated with C=CCNC(=O)[C@@H]1[C@H]2C(=O)O[C@H](c3ccccc3)[C@H](c3ccccc3)N2[C@H](c2ccc(OCCO)cc2)[C@@]12C(=O)Nc1ccc(C#CCCO)cc12
-0.41 (inactive)

Request the reported z-score associated with C=C(C)C1C(=C)CN([C@H](CO)c2ccccc2)C1=O (some centres not stated)
-1.08 (inactive)

Request the reported z-score associated with COC(=O)[C@@]1(Cc2ccc(F)cc2)[C@H]2c3cc(C(=O)N4CCCC4)n(Cc4cc(C)n(C)n4)c3C[C@H]2CN1C(=O)c1ccccc1
-0.859 (inactive)

Request the reported z-score associated with COCCOC(=O)N1C(=O)[C@@]2(c3cc(C#CCNC(N)=O)ccc31)[C@H](C(=O)NC[C@H](O)c1ccccc1)[C@H]1C(=O)O[C@H](c3ccccc3)[C@H](c3ccccc3)N1[C@@H]2c1ccccc1OCCO
-0.119 (inactive)

Request the reported z-score associated with CC(=O)NCCCC[C@@H]1NC(=O)[C@@H]2C[C@H](C(=O)NCCCCCCNC(=O)CS)[C@H](c3cccc(OCCO)c3)N2C1=O
-0.493 (inactive)

Request the reported z-score associated with CCCCCN1CC=CC23O[C@@H]4/C=C\CCCOC(=O)C4[C@H]2C(=O)N(CCCO)[C@@H]3C1=O (some centres not stated)
2.27 (inactive)

Request the reported z-score associated with CN(C)C(=O)[C@@]1(Cc2ccccc2)N=C(c2ccc(OCCCO)cc2)O[C@H]1c1ccccc1N=[N+]=[N-]
0.89 (inactive)
